molecular target: gEgI WT: HSV2 gEgI heterodimer comprising gE and gI wildtype ectodomains (HSV2, UniProt P89475 21-416; P06764 21-256); assay: SPR binning; gEgI captured by mAb 24
RU reference
Expressed in RU, but write only the number.

INSERT INTO results (binder, measured_attribute, data_value) VALUES
  ('mAb clone 40 (antibody, V domains shown) VH: QIQLVQSGPELKKPGETVKISCKASGYTFTNYGMNWVKQAPGKGLKWMGWINTYTGEPTYADDFKGRFAFSLETSASTAYLQINNLKNEDTATYFCARSLYGYDEGYFDVWGAGTTVTVSS VL: DIQMTQSPASLSASVGETVTITCRASGNIHNYLAWYQQKQGKSPQLLVYNAKTLADGVPSRFSGSGSGTQYSLKINSLQPEDFGSYYCQHFWSTPYTFGGGTKLEIK', 'RU', 7.6),
  ('mAb clone 17 (antibody, V domains shown) VH: QVQLKESGPGLVAPSQSLSITCTVSGFSLTSYGVHWVRQPPGKGLEWLGVIWAGGSSNYNSALMSRLSISKDNSKSQVFLKMNSLQTDDTAMYYCARDGYGYVYYAMDYWGQGTSVTVSS VL: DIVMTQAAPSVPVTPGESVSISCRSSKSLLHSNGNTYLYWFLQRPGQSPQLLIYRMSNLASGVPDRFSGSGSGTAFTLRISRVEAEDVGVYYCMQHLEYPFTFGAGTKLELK', 'RU', -2),
  ('mAb clone 34 (antibody, V domains shown) VH: EVKLVESGGGLVQPGGSLKLSCATSGFTFSDYYMYWVRQTPEKRLEWVAYISNGGDSTYYPDTVKGRFTISRDNAKNTLYLQMSRLKSEDTAMYYCARSYYGNPFPYWGQGTLVTVSA VL: ENVLTQSPAIMSASPGEKVTMTCRASSSVSSSYLHWYQQKSGASPKLWIYSTSNLASGVPARFSGSGSGTSYSLTISSVEAEDAATYYCQQYSGYPLTFGAGTKLELK', 'RU', -3.6);

Would you kindly look at the next entry?
## Input Reported RU, binder mAb clone 39 (antibody, V domains shown) VH: EVKLVESGGGLVQPGGSLKLSCAASGFTFSSYTMSWVRQTPEKRLEWVAYISNGGGSTYYPDTVKGRFTISRDNAKNTLYLQMSSLKSEDTAMYYCARGVSYYGDLYYFDYWGQGTTLTVSS VL: DVVVTQTPLSLPVSFGDQVSISCRSSQSLANSYGNTYLSWYLHKPGQSPQLLIYGISNRFSGVPDRFSGSGSGTDFTLKISTIKPEDLGMYYCLQGTHQPWTFGGGTKLEIK : ____
## Output -0.9

Source: patent US20230331820A1
